Source: paper PMC11562494

Reported MFC/ MIC ratio C. albicans by item:
System: C. albicans
PROTOCOL DETAILS: Broth dilution MIC/MFC
Assay type: cell-based, Candida albicans
QUANTITY MEASURED: MFC/ MIC ratio C. albicans

>>> print(df.to_string())
                  compound_structure_string  value
0  N#Cc1c(-c2ccc(OCc3ccccc3)cc2)c(C(N)=O)c(N)n(N)c1=O      4
1  N#Cc1c(-c2ccc(Cl)cc2Cl)c(C(N)=O)c(N)n(N)c1=O      2
2  N#Cc1c(-c2ccc(OCc3ccccc3)cc2)c(C(N)=S)c(N)n(N)c1=O      2
3  CN(C)c1ccc(-c2c(C(N)=O)c(N)n(N)c(=O)c2C#N)cc1      2
4  CC(=O)Oc1ccc(-c2c(C(N)=O)c(N)n(N)c(=O)c2C#N)cc1      2
5  CN(C)c1ccc(-c2c(C(N)=S)c(N)n(N)c(=O)c2C#N)cc1      4
6            Cc1c(C(N)=O)c(N)n(N)c(=O)c1C#N      4
